binders and their reported koff
# EXPERIMENTAL_TARGET: T1, recombinant monomeric human TIGIT-His (human, UniProt Q495A1 22-141)
# T1 construct: also called hTIGIT; not shown: His tag
# T1 sequence: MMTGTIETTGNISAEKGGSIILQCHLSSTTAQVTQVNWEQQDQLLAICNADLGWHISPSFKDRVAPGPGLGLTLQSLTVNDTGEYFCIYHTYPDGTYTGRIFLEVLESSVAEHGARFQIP
# PROTOCOL_SUMMARY: BLI (Octet QKe), antibody on AHC sensor, several concentrations of human TIGIT-His, 1:1 global fit, average
# Description: A strategy of capturing anti-TIGIT antibodies on sensors following association/dissociation of monomeric TIGIT proteins was used to avoid avidity effects in the assay. The BLI analysis was performed at 29° C. using 1× kinetics buffer (ForteBio) as assay buffer. […] Dissociation of TIGIT was measured by dipping the sensors into assay buffer for 600, 1200, or 1800 seconds, depending on the experiment (600 seconds was only used for mouse TIGIT-His). […]

BINDER: MAB2-IgG4 (antibody, V domains shown) VH: QLQLQESGPGLVKPSETLSLTCTVSGGSISSSKYYWGWIRQPPGKGLEWIGSIYYSGSTFYNPSLKSRVTISVDTSKNQFSLKLSSVTAADTAVYYCARDANYYGSAWAFDPWGQGTLVTVSS VL: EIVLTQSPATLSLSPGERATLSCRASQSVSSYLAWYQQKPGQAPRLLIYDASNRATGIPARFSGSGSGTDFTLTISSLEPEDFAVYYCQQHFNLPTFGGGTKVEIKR
koff: 0.00023 s⁻¹

BINDER: MAB21-IgG4 (antibody, V domains shown) VH: QVQLVQSGAEVKKPGASVKVSCKASGYTFTSHYMGWVRQAPGQGLEWMGIINPSMGATSYTQKFRGRVTMTRDTSTSTVYMELSSLRSEDTAVYYCARLHVSGSYYPAYLDYWGQGTMVTVSS VL: EIVMTQSPATLSVSPGERATLSCRASQSVSSNLAWYQQKPGQAPRHLIYGASTRATGIPARFSGSGSGTEFTLTISSLQSEDFAVYYCQQYIVFPWTFGGGTKVEIKR
koff: 0.0005 s⁻¹
